- testedSystem: Nanoluciferase-BRD9 fusion protein (3×FLAG-NLuc-BRD9) in SYO-1 cells (Homo sapiens (Human))
- Sequence (Q9H8M2 whole entry, the tested form may be a part): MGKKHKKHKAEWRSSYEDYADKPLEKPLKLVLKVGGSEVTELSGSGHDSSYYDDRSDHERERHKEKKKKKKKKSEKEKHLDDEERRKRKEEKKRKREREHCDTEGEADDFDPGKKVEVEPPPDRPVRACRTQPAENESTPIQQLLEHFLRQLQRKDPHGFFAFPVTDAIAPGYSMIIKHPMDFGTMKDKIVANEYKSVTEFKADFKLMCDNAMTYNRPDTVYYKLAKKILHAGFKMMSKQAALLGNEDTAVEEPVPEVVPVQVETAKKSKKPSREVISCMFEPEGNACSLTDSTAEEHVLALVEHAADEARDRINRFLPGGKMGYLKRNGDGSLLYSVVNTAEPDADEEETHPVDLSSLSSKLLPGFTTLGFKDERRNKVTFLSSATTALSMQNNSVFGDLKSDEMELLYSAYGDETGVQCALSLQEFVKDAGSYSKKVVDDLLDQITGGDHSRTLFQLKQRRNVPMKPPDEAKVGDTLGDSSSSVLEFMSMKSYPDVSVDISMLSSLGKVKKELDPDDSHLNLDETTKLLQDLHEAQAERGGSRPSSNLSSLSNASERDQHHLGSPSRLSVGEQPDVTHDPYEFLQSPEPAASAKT
- assayNotes: SYO1 BRD9 NanoLuc degradation assay
- Format: cell-based
- assaySetup: SYO-1 cells expressing 3×FLAG-NLuc-BRD9, 6 hours incubation, top dose 1 μM
readoutType: IC50

IN: Would you kindly share the measured IC50 for CNC(=O)N1CCc2c(-c3cc(OC)c(CN4CC(Oc5ccc6c(c5)C(=O)N(C5CCC(=O)NC5=O)C6=O)C4)c(OC)c3)cn(C)c(=O)c2C1 (stereo not drawn) [Compound D116] ?
OUT: < 0.01 µM

IN: Would you kindly share the measured IC50 for CNC(=O)N1CCc2c(-c3cc(OC)c(CN4CCC(CCN5C(C)CN(c6ccc7c(c6)C(=O)N(C6CCC(=O)NC6=O)C7=O)CC5C)CC4)c(OC)c3)cn(C)c(=O)c2C1 (stereo not drawn) [Compound D145] ?
OUT: < 0.01 µM

IN: Would you kindly share the measured IC50 for COc1cc(-c2cn(C)c(=O)c3c2CCN(C(=O)NC2CC4CC2CN4CCCOc2ccc4c(c2)C(=O)N(C2CCC(=O)NC2=O)C4=O)C3)cc(OC)c1CN(C)C (stereo not drawn) [Compound D270] ?
OUT: 0.1 to 1 µM
